measuredOn: Leucine-rich repeat serine/threonine-protein kinase 2 (Homo sapiens)
methodNotes: Inhibition of GST-tagged recombinant human LRRK2 expressed in Insect cell using ERM as substrate measured after 1 hrs
pIC50: −log10 of the molar value.
reportedProperty: pIC50

>  <structureAsSmiles>
Cn1cc(-c2c[nH]c3ncnc(N4CCOCC4)c23)cc1C#N

>  <reportedProperty>
pIC50

>  <recordedValue>
7.89

$$$$

* * *

measuredOn: Leucine-rich repeat serine/threonine-protein kinase 2 (Homo sapiens)
methodNotes: Inhibition of GST20-tagged human LRRK2 by cell based assay
Listed here: items and their measured IC50.

>  <compound>
CC(C)(O)[C@@H]1CCN(c2cnc(C(F)(F)F)c(NC(=O)c3cccc(-c4cnn(CC(F)(F)F)c4)n3)c2)C1

>  <measuredOn>
Leucine-rich repeat serine/threonine-protein kinase 2 (Homo sapiens)

>  <valueUnit>
nM

>  <IC50>
0.7

$$$$
>  <compound>
Cn1cc(-c2nc(C(=O)Nc3cnn(C4CCC4)c3)cs2)cn1

>  <measuredOn>
Leucine-rich repeat serine/threonine-protein kinase 2 (Homo sapiens)

>  <valueUnit>
nM

>  <IC50>
271

$$$$
>  <compound>
Cn1cc(-c2cccc(C(=O)Nc3cc(N4CC[C@@H](C(C)(C)O)C4)cnc3C(F)(F)F)n2)cn1

>  <measuredOn>
Leucine-rich repeat serine/threonine-protein kinase 2 (Homo sapiens)

>  <valueUnit>
nM

>  <IC50>
21

$$$$
>  <compound>
Cn1cc(-c2cccc(C(=O)Nc3cc(N4CCC(C(C)(C)O)C4)ncc3C(F)(F)F)n2)cn1 (centres undefined)

>  <measuredOn>
Leucine-rich repeat serine/threonine-protein kinase 2 (Homo sapiens)

>  <valueUnit>
nM

>  <IC50>
2.5

$$$$

* * *

measuredOn: Leucine-rich repeat serine/threonine-protein kinase 2 (Homo sapiens, UniProt Q5S007)
Sequence (Q5S007 whole entry): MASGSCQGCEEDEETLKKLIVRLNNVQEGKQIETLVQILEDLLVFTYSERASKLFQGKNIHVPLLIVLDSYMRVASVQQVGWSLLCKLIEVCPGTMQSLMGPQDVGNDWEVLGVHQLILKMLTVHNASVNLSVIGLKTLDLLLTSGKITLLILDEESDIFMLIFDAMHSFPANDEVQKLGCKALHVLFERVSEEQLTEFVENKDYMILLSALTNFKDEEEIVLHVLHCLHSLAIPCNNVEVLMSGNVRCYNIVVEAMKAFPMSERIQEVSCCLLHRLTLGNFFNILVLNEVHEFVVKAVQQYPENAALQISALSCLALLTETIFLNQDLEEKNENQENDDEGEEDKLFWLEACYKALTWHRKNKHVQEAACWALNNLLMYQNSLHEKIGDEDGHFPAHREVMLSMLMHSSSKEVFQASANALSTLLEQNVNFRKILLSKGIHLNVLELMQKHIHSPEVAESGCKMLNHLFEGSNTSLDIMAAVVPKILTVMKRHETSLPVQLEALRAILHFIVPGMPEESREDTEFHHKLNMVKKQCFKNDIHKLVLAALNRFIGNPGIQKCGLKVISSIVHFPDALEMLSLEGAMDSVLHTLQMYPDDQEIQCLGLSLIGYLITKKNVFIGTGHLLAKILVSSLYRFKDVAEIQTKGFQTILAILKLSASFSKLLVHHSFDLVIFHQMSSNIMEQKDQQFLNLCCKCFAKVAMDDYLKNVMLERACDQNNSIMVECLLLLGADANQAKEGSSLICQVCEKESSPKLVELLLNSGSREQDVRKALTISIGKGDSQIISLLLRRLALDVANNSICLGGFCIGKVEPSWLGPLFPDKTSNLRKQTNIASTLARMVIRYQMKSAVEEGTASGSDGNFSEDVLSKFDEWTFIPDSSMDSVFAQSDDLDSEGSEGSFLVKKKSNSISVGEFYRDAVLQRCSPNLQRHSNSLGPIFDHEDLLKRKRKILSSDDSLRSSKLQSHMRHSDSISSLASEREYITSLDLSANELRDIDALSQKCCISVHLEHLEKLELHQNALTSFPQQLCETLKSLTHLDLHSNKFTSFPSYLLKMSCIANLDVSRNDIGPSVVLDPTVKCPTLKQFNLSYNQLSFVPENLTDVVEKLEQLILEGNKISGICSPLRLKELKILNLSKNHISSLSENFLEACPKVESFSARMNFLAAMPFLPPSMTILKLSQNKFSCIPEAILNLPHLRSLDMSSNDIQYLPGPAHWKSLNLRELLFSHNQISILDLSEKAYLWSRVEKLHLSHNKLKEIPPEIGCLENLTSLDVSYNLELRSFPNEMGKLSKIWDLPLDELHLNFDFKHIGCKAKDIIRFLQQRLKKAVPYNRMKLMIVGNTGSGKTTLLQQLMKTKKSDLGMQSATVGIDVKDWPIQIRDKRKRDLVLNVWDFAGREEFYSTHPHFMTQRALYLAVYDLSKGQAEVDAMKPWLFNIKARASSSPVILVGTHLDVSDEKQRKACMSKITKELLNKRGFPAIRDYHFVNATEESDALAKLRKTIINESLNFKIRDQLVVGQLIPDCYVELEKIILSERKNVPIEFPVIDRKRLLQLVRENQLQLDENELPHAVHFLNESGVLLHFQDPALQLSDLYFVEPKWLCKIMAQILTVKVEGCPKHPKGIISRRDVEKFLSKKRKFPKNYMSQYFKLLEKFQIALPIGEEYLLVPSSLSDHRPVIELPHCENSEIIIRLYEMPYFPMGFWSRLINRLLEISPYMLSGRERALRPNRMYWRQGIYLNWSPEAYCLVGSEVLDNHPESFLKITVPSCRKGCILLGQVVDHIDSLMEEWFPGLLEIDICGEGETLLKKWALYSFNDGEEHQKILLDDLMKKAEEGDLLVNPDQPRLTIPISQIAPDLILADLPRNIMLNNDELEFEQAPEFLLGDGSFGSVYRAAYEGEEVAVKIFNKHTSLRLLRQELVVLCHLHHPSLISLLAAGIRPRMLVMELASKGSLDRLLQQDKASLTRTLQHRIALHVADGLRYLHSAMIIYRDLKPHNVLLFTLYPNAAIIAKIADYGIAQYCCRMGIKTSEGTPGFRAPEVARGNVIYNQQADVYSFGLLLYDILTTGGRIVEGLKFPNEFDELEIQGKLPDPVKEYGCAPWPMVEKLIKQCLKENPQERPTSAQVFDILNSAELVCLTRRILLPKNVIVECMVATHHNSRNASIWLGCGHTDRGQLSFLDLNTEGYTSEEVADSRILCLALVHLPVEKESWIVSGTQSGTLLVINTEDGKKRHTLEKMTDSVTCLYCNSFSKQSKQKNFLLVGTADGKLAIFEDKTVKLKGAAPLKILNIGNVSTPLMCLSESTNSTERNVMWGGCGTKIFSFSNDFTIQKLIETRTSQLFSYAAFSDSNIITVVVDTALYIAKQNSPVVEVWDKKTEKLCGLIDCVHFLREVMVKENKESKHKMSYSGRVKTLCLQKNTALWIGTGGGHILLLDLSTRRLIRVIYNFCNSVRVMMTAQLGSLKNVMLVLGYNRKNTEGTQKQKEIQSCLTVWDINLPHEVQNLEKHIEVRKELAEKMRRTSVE
methodNotes: Inhibition of GST20-tagged human LRRK2 using ERM as substrate measured after 90 mins in presence of ATP by lanthascreen TR-FRET assay

>  <compound>
Cn1cc(-c2cccc(C(=O)Nc3cc(N4CCC(C(C)(C)O)C4)ncc3C(F)(F)F)n2)cn1 (centres undefined)

>  <IC50>
1 nM

$$$$
>  <compound>
Cn1cc(-c2cccc(C(=O)Nc3cc(N4CC[C@@H](C(C)(C)O)C4)cnc3C(F)(F)F)n2)cn1

>  <IC50>
17 nM

$$$$
>  <compound>
Cn1cc(-c2nc(C(=O)Nc3cnn(C4CCC4)c3)cs2)cn1

>  <IC50>
14 nM

$$$$
>  <compound>
CC(C)(O)[C@@H]1CCN(c2cnc(C(F)(F)F)c(NC(=O)c3cccc(-c4cnn(CC(F)(F)F)c4)n3)c2)C1

>  <IC50>
10 nM

$$$$

* * *

methodNotes: Half life in mouse
Assay type: ADME, organism-based
setupConditions: in vivo

>  <structureAsSmiles>
COc1cc(C(=O)N2CCC(N3CCN(C)CC3)CC2)ccc1Nc1ncc2c(n1)N(C)c1ccccc1C(=O)N2C

>  <half-life (h)>
4.5

$$$$

* * *

measuredOn: Leucine-rich repeat serine/threonine-protein kinase 2 (Homo sapiens, UniProt Q5S007)
methodNotes: Inhibition of human LRRK2 measured after 60 mins by TR-FRET assay

>  <structureAsSmiles>
COc1cc(N2CCOCC2)ccc1Nc1ncc(F)c(Nc2ccccc2NS(C)(=O)=O)n1

>  <IC50>
4.76 nM

$$$$
>  <structureAsSmiles>
COc1cc(N2CCOCC2)ccc1Nc1ncc(Cl)c(Nc2ccccc2NS(C)(=O)=O)n1

>  <IC50>
1.28 nM

$$$$

* * *

methodNotes: Half life in rat
Format: ADME
setupConditions: in vivo
reportedProperty: half-life (h)

>  <structureAsSmiles>
CCNc1nc(Nc2cc(F)c(C(=O)N3CCOCC3)cc2OC)ncc1C(F)(F)F

>  <reportedProperty>
half-life

>  <valueUnit>
h

>  <recordedValue>
3.1

$$$$

* * *

measuredOn: Protein cereblon/Leucine-rich repeat serine/threonine-protein kinase 2 (Mus musculus, UniProt Q5S006+Q8C7D2)
methodNotes: PROTAC activity at CRBN/LRRK2 in mouse RAW264.7 cells assessed as reduction of protein degradation measured after 24 hrs by Western blot analysis
pIC50: −log10 of the molar value.

>  <compound>
CCNc1nc(Nc2cc(F)c(C(=O)NCCCCNc3cccc4c3C(=O)N(C3CCC(=O)NC3=O)C4=O)cc2OC)ncc1C(F)(F)F (stereo unspecified)

>  <pIC50>
7.83

$$$$

* * *

Listed here: items and their measured EC50.
measuredOn: von Hippel-Lindau disease tumor suppressor/Leucine-rich repeat serine/threonine-protein kinase 2 (Homo sapiens, UniProt P40337+Q5S007)
Sequence (Q5S007 whole entry): as above
Sequence (P40337 whole entry): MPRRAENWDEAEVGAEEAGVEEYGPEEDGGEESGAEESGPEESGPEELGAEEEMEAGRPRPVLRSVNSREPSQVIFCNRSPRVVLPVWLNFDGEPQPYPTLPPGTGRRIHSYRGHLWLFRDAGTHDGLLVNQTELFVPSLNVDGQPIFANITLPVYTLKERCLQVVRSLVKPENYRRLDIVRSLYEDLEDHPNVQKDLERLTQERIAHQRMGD
methodNotes: PROTAC activity at VHL/LRRK2 in human PBMC cells assessed as reduction of protein degradation measured after 4 hrs by Western blot

>  <structureAsSmiles>
CNc1nc(Nc2ccc(C(=O)N3CCN(C[C@H]4CC[C@H](CSC(C)(C)[C@H](NC(=O)C5(F)CC5)C(=O)N5C[C@H](O)C[C@H]5C(=O)NCc5ccc(-c6scnc6C)cc5)CC4)CC3)cc2OC)ncc1Cl

>  <EC50, nM>
32

$$$$
>  <structureAsSmiles>
CNc1nc(Nc2ccc(C(=O)N3CCN(C[C@H]4CC[C@@H](CSC(C)(C)[C@H](NC(=O)C5(F)CC5)C(=O)N5C[C@H](O)C[C@H]5C(=O)NCc5ccc(-c6scnc6C)cc5)CC4)CC3)cc2OC)ncc1Cl

>  <EC50, nM>
32

$$$$

* * *

measuredOn: Leucine-rich repeat serine/threonine-protein kinase 2 (Homo sapiens)
methodNotes: Inhibition of LRRK2 (unknown origin)
pIC50: −log10 of the molar value.
Listed here: items and their measured pIC50.
reportedProperty: pIC50

>  <structureAsSmiles>
CC(C)Nc1nc(Nc2ccc(C(=O)NCc3ccccc3)cc2)nc2ccsc12

>  <reportedProperty>
pIC50

>  <recordedValue>
7.52

$$$$
>  <structureAsSmiles>
C=CC(=O)Nc1cccc(Oc2nc(Nc3ccc(N4CCN(C)CC4)c(F)c3)nc3[nH]ccc23)c1

>  <reportedProperty>
pIC50

>  <recordedValue>
6.75

$$$$

* * *

Listed here: items and their measured IC50.
measuredOn: Leucine-rich repeat serine/threonine-protein kinase 2 (Homo sapiens, UniProt Q5S007, G2019S)
methodNotes: Inhibition of human LRRK2 G2019S mutant measured after 60 mins by TR-FRET assay

>  <structureAsSmiles>
COc1cc(N2CCOCC2)ccc1Nc1ncc(Cl)c(Nc2ccccc2NS(C)(=O)=O)n1

>  <IC50>
1.85 nM

$$$$
>  <structureAsSmiles>
COc1cc(N2CCOCC2)ccc1Nc1ncc(F)c(Nc2ccccc2NS(C)(=O)=O)n1

>  <IC50>
6.87 nM

$$$$

* * *

measuredOn: Leucine-rich repeat serine/threonine-protein kinase 2 (Homo sapiens)
methodNotes: Inhibition of human full length LRRK2 using RLGRDKYKTLRQIRQ peptide as substrate by mass spectrometry analysis

>  <structureAsSmiles>
Cc1c2c(nn1C1CCOCC1)OCCCNc1nc(ncc1Cl)N2

>  <IC50>
≤ 100 nM

$$$$

* * *

methodNotes: Oral bioavailability in CD-1 mouse at 5 mg/kg
Type: ADME, organism-based
setupConditions: in vivo
reportedProperty: bioavailability (%)

>  <structureAsSmiles>
COc1cc(N2CCOCC2)ccc1Nc1ncc(F)c(Nc2ccccc2NS(C)(=O)=O)n1

>  <recordedValue>
133

$$$$

* * *

measuredOn: Leucine-rich repeat serine/threonine-protein kinase 2 (Homo sapiens, UniProt Q5S007, G2019S)
methodNotes: Inhibition of human LRRK2 G2019S mutant using LRRKtide as substrate measured after 1 hrs by caliper mobility shift assay
reportedProperty: IC50

>  <structureAsSmiles>
CNc1nc(N/N=C/c2cccc3ccccc23)nc(Nc2cccc(C(F)(F)F)c2)n1

>  <reportedProperty>
IC50

>  <recordedValue>
378 nM

$$$$

* * *

measuredOn: Leucine-rich repeat serine/threonine-protein kinase 2 (Homo sapiens, UniProt Q5S007)
methodNotes: Inhibition of human LRRK2 using LRRKtide as substrate measured after 1 hrs by caliper mobility shift assay

>  <structureAsSmiles>
CNc1nc(N/N=C/c2cccc3ccccc23)nc(Nc2cccc(C(F)(F)F)c2)n1

>  <IC50 [µM]>
0.424

$$$$

* * *

methodNotes: Oral bioavailability in rat
Type: ADME, organism-based
setupConditions: in vivo

>  <structureAsSmiles>
CCNc1nc(Nc2cc(F)c(C(=O)N3CCOCC3)cc2OC)ncc1C(F)(F)F

>  <bioavailability [%]>
40

$$$$

* * *

Listed here: items and their measured IC50.
measuredOn: Leucine-rich repeat serine/threonine-protein kinase 2 (Homo sapiens, UniProt Q5S007, G2019S)
methodNotes: Inhibition of LRRK2 G2019S mutant (unknown origin)

>  <compound>
CC(C)Nc1nc(Nc2ccc(C(=O)NCc3ccccc3)cc2)nc2ccsc12

>  <IC50 [nM]>
14

$$$$
>  <compound>
C=CC(=O)Nc1cccc(Oc2nc(Nc3ccc(N4CCN(C)CC4)c(F)c3)nc3[nH]ccc23)c1 [ABIVERTINIB]

>  <IC50 [nM]>
410

$$$$
>  <compound>
CCNc1nc(Nc2cc(F)c(C(=O)N3CCOCC3)cc2OC)ncc1C(F)(F)F

>  <IC50 [nM]>
1

$$$$
